Tested on: TRPC4 (transient receptor potential cation channel C4 beta), mouse
experimentalProtocol: positive allosteric modulators of mouse TRPC4, confirmation, cell-based, second round, Fluo-4, HEK293 TRPC4beta/mu-opioid, 1 µM (AID 2554)
testContext: DAMGO EC20, Fluo-4 calcium flux, at 1 µM
The source made the active and inactive calls.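 The calls were made as follows: active = primary screen hit whose fluorescence ratio, in both repeats, exceeds the weak agonist control mean by 3 SD; inactive = the rest.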
Respond only with the outcome that fits, drawn from label 1 for active, label 0 for inactive

Input line: Hello, I am checking results. What call was entered for O=c1c2c(-c3ccccc3)csc2ncn1/N=C/c1cccc([N+](=O)[O-])c1O ?
Output line: label 0

Input line: Hi, sorry to bother you, what did the test record for COc1cc(OC)cc(C(=O)NCCCN2CCN(CCCNC(=O)c3cc(OC)cc(OC)c3)CC2)c1 ?
Output line: label 0

Input line: What is the recorded call for this compound in the test? CCOC(=O)C1(CCOc2ccccc2)CCN(Cc2ccc(OC)c(O)c2)CC1
Output line: label 0

Input line: What is the recorded call for this compound in the test? CN1CCN(c2ccc(C(F)(F)F)cc2NC(=O)Nc2ccccc2)CC1
Output line: label 1

Input line: Which outcome was assigned to O=C(CCc1ccccc1)NNC(=S)NC(=O)c1ccc(Cl)cc1 in this test?
Output line: label 0

Input line: Query: recorded result category for C#Cc1cccc(C(=O)NC2CCCN(C3Cc4ccccc4C3)C2)c1 (stereo not given) in this test
Output line: label 0

Input line: Hey, what did the test say about Cc1cc(NC(=O)CN2CCc3ccccc3C2)nc2c1c(=O)oc1ccccc12 ?
Output line: label 0

Input line: What classification did CCn1cc(CN2CCC(n3nccc3NC(=O)CCCc3ccccc3)CC2)cn1 end up with in this test?
Output line: label 0

Input line: Which outcome was entered for the compound Cc1ccc(C2N(c3ccc(Cl)c(Cl)c3)C(=O)C3CCCN32)o1 (stereo not given) in this test?
Output line: label 1

Input line: Query: recorded result category for CCc1ccc(C(CNc2nc(C(F)(F)F)nc3ccccc23)N(C)C)cc1 (stereo not given) in this test
Output line: label 0

Input line: // param item: Cc1ccc(C(=O)NC(=S)NNC(=O)c2ccccc2)cc1 ; yields the recorded call
Output line: label 0

Input line: Which outcome was entered for the compound Cc1cccc(C(=O)NC(=S)NNC(=O)c2ccccc2Cl)c1 in this test?
Output line: label 0

Input line: What was the test verdict on Cc1cc(Br)ccc1OCCn1ccnc1 ?
Output line: label 0

Input line: Hi, sorry to bother you, what did the test record for Cc1ccccc1NC(=S)NCCc1ccccn1 ?
Output line: label 0

Input line: GET /call?item= CN(CCOc1ccc(Cl)cc1)CC(O)c1ccccc1 (stereo not given) returns the recorded outcome of this test.
Output line: label 0

Input line: Assay result, entry COc1ccccc1NS(=O)(=O)c1cccc(C(=O)NC2CCN(Cc3ccccc3)CC2)c1 — outcome?
Output line: label 0

Input line: What did the test return for Cc1c(C(=O)N(Cc2cccs2)C2CCS(=O)(=O)C2)oc2ccccc12 (stereo not given) ?
Output line: label 0

Input line: Can you look up the reported call for CN(C)CCCN(C(=O)c1ccc(S(=O)(=O)N(C)C2CCCCC2)cc1)c1nc2ccc(F)cc2s1 for me?
Output line: label 0

Input line: Name the outcome recorded for CCCOc1ccc(C(=O)NNC(=S)NC(=O)c2ccccc2)cc1 in the assay.
Output line: label 0

Input line: Hey, what did the test say about COc1ccc(-c2cc(C#N)nc(N3CCNCC3)n2)cc1 ?
Output line: label 0

Input line: Test call, this compound: O=C(Cn1c(-c2ccccc2)c[n+]2ccsc12)c1ccc(Br)cc1
Output line: label 0

Input line: GET /call?item= O=c1c2ccccc2[nH]c(=S)n1Cc1cccnc1 returns the recorded outcome of this test.
Output line: label 0

Input line: Write down the call the test reported for this compound. Item: Cc1ccc(Cl)cc1NC(=O)CNCC(c1ccccc1)N(C)C (stereo not given)
Output line: label 0

Input line: Could you kindly confirm the outcome this assay logged for C/C=C(\C)CN1CCC(n2nccc2NC(=O)CCc2ccccc2)CC1 ?
Output line: label 0

Input line: Which outcome was entered for the compound COc1ccc(C(CCNCc2ccc(N(C)C)cc2)c2ccccc2OC)cc1 (stereo not given) in this test?
Output line: label 0

Input line: Called result for Cc1onc(-c2ccccc2)c1C(=O)NNC(=S)NC(=O)c1ccc(F)cc1
Output line: label 0

Input line: Check the results log: what was the call for Cc1ccc(-n2cc(CNCCc3ncc(C)[nH]3)c(-c3ccc(F)cc3)n2)cc1 ?
Output line: label 0

Input line: Please indicate how the test categorized OC(CNC1CCCc2ccccc21)COc1c(Cl)cccc1Cl (stereo not given) .
Output line: label 0

Input line: What was the test verdict on Cc1cccc(C)c1OCC(O)CN (stereo not given) ?
Output line: label 0

Input line: For CN1CCCC(OC(=O)c2cc(Cl)cc(Cl)c2)C1 (stereo not given) , which call appears in the assay record?
Output line: label 0

Input line: So what was the verdict on COc1ccc(C(=O)NNC(=S)NC(=O)c2ccccc2)cc1 in this test?
Output line: label 0

Input line: Called result for CCn1c(N2CCN(Cc3ccc([N+](=O)[O-])cc3)CC2)nc2ccccc21
Output line: label 0

Input line: Recorded test outcome, item COc1cc(OC)cc(C(=O)NC2CCCN(Cc3ccc(Cl)cc3)C2)c1 (stereo not given)
Output line: label 0

Input line: Record lookup: outcome of this test for CN(C)C(CNc1ncnc2sc3c(c12)CCCC3)c1ccco1 (stereo not given) ?
Output line: label 0

Input line: What is the recorded call for this compound in the test? Cc1ccc(C)c(OCCCCCn2ccnc2)c1
Output line: label 0

Input line: Which result was noted for this compound in the test: Cn1c(O)c(/C=N/NC(=O)c2cc3ccccc3cc2O)c2ccccc21
Output line: label 0

Input line: Record request — test call for Cc1cccc(C(=O)NNC(=S)NC(=O)c2ccccc2)c1
Output line: label 0

Input line: Would you mind telling me which call this test gave Cc1onc(-c2ccccc2)c1C(=O)NNC(=S)NC(=O)c1ccc(Cl)cc1Cl ?
Output line: label 0

Input line: Each compound tested received a call. Report the one for CCN1CCN(c2ccc(S(=O)(=O)N3CCCCC3)cc2NC(=O)c2cccc(C)c2[N+](=O)[O-])CC1 .
Output line: label 0

Input line: Kindly provide the recorded test outcome for the following compound: O=C(NCCc1ccccn1)c1ccc(OC2CCN(CCc3ccccc3)CC2)cc1
Output line: label 0

Input line: Recorded test outcome, item CCCC(=O)N1CCc2cc(-c3nc(N)sc3C)ccc21
Output line: label 0

Input line: Tell me the recorded outcome of this test for Cc1cc(C)c(C)c(OCCCN(C)C)c1 .
Output line: label 0

Input line: Field: outcome | Entry: CCOc1ccccc1CN1CCNC(=O)C1CC(=O)NCCc1ccccn1 (stereo not given)
Output line: label 0

Input line: Which outcome did this test record for the compound CN(C)C(CNC(=O)CCc1c[nH]c2ccccc12)c1ccccc1 (stereo not given) ?
Output line: label 0

Input line: What outcome does the record of this test show for CCOC(=O)c1c(NC(=O)COC(=O)Cc2c[nH]c3ccccc23)sc(C(=O)N(C)C)c1C ?
Output line: label 1
